assay_text: Cell growth assay, WST-8 (compounds B1-B126)
Format: cell-based
settings: 96 h; T47D cell line, WST-8, 4 days; read-out: Cell growth inhibition in T47D cell line IC50
pIC50: −log10 of the molar value.
Provide the recorded pIC50 for the entries that follow.

(Q) I have this compound here, COc1cc(N2CCC3(CC2)OCC(CN2CCN4c5ccc6c(c5OC[C@@H]4C2)CN([C@@H]2CCC(=O)NC2=O)C6=O)CO3)ccc1[C@@H]1c2ccc3[nH]ncc3c2C[C@@H](C)N1CC(F)F , and I need its recorded pIC50.
(A) > 9.00

(Q) I have this compound here, C[C@@H]1Cc2c(ccc3[nH]ncc23)[C@@H](c2c(F)cc(NC3CN(CC(=O)N4CCN5c6ccc7c(c6OC[C@H]5C4)CN(C4CCC(=O)NC4=O)C7=O)C3)cc2F)N1CC(F)F (some centres unmarked) , and I need its recorded pIC50.
(A) 8.00 to 9.00

(Q) Can you look up the measured pIC50 of C[C@@H]1Cc2c(ccc3[nH]ncc23)[C@@H](c2ccc(N3CCC(CN4CCN(c5ccc6c(c5)CN(C5CCC(=O)NC5=O)C6=O)CC4)CC3)cn2)N1CC(F)(F)F (some centres unmarked) for me?
(A) > 9.00

(Q) What pIC50 value was documented for this compound, C[C@@H]1Cc2c(ccc3[nH]ncc23)[C@@H](c2ccc(N3CCC(CN4CCC5(CC4)COc4c5ccc5c4CN(C4CCC(=O)NC4=O)C5=O)CC3)cn2)N1CC(F)(F)F (some centres unmarked) ?
(A) > 9.00

(Q) I am curious: what pIC50 value has been reported for C[C@@H]1Cc2c(ccc3[nH]ncc23)[C@@H](c2ccc(N3CC4(CCC(CN5CCN6c7c(ccc8c7CN(C7CCC(=O)NC7=O)C8=O)OC[C@@H]6C5)CC4)C3)cn2)N1CC(F)(F)F (some centres unmarked) ?
(A) 8.00 to 9.00
